// data source = paper PMC12527173

measurement target: human recombinant Glo-I enzyme (rhGlo-I) (Homo sapiens, UniProt Q04760)
Construct: N-terminal Met and 6-His tag (N); purchased R&D Systems; host or cells: E. coli
procedure summary: Glyoxalase-I (Glo-I) enzyme inhibition assay
Type: biochemical
metric name: IC50

Tell me the measured IC50 of `CC(C)=CC[C@@H](O)C1=CC(=O)c2c(O)ccc(O)c2C1=O` , please.
8.1 µM

* * *

Tested on: LPS-primed RAW 264.7 murine macrophages (nitrite / iNOS)
procedure summary: Anti-inflammatory (nitrite) determination in LPS-primed macrophages
Assay type: cell-based
test conditions: Mus musculus, RAW264.7, read-out: IC50, ability to reduce inflammation
metric name: IC50 (µM)
Lab book: enter the figure in µM, no units written.

Tell me the measured IC50 of O=c1c(O)c(-c2cc(O)c(O)c(O)c2)oc2cc(O)cc(O)c12 [Myricetin, reference compound] , please.
0.05

* * *

measurement target: human recombinant Glo-I enzyme (rhGlo-I) (Homo sapiens)
Construct: N-terminal Met and 6-His tag (N); purchased R&D Systems; host or cells: E. coli
Sequence (Q04760 2-184 limits assumed): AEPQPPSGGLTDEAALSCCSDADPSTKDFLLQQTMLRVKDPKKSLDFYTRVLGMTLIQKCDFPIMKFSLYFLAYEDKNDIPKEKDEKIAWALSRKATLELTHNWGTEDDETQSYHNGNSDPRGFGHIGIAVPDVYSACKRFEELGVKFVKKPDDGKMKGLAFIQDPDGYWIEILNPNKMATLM
procedure summary: Glyoxalase-I (Glo-I) enzyme inhibition assay
Format: biochemical
test conditions: 3.125 µM; read-out: Trial two (%inhibtion)
metric name: inhibition at 3.125 µM (%)
Lab book: enter the figure in %, no units written.

Tell me the measured inhibition at 3.125 µM of O=C1c2ccc(O)c(O)c2C(=O)c2c(O)ccc(O)c21 [Quinalizarin] , please.
19.5

// query: C[C@]12CC[C@@H]3c4ccc(O)c(O)c4CC[C@H]3[C@@H]1CC[C@@H]2O [4-hydroxy-estradiol]
96.1

// query: O=c1cc(O)cc(/C=C/c2ccc(O)c(O)c2)o1 [Hispidin]
4.72

// query: Cc1ccc(C(=O)c2cc(O)c(O)c([N+](=O)[O-])c2)cc1 [Tolcapone, reference compound]
19.4

// query: CC(/C=C/C(=O)NO)=C\[C@@H](C)C(=O)c1ccc(N(C)C)cc1 [Trichostatin A, reference compound]
2.77

// query: O=C(/C=C/c1ccc(O)c(O)c1)O[C@H]1[C@H](O)[C@@H](O)[C@H](OCCc2ccc(O)c(O)c2)O[C@@H]1CO [Calceolarioside A]
7.9

* * *

What inhibition at 50 µM was measured for each of the following?
measurement target: human recombinant Glo-I enzyme (rhGlo-I) (Homo sapiens)
Construct: N-terminal Met and 6-His tag (N); purchased R&D Systems; host or cells: E. coli
procedure summary: Glyoxalase-I (Glo-I) enzyme inhibition assay
Format: biochemical
test conditions: 50 µM; read-out: Trial three (%inhibtion)
Lab book: enter the figure in %, no units written.

Tell me the measured inhibition at 50 µM of CC(/C=C/C(=O)NO)=C\[C@@H](C)C(=O)c1ccc(N(C)C)cc1 [Trichostatin A, reference compound] , please.
38.8

// query: Cc1ccc(C(=O)c2cc(O)c(O)c([N+](=O)[O-])c2)cc1 [Tolcapone, reference compound]
102

// query: `O=C1c2ccc(O)c(O)c2C(=O)c2c(O)ccc(O)c21`
55.3

// query: C[C@]12CC[C@@H]3c4ccc(O)c(O)c4CC[C@H]3[C@@H]1CC[C@@H]2O [4-hydroxy-estradiol]
101

// query: O=C(/C=C/c1ccc(O)c(O)c1)O[C@H]1[C@H](O)[C@@H](O)[C@H](OCCc2ccc(O)c(O)c2)O[C@@H]1CO [Calceolarioside A]
56

// query: `O=c1cc(O)cc(/C=C/c2ccc(O)c(O)c2)o1`
54.5

* * *

Tested on: cancer cell lines (panel)
procedure summary: SRB cytotoxicity assay, ranges stated over several cancer cell lines
Assay type: cell-based
test conditions: Homo sapiens; CACO2, HCT116, SW620, HT29; read-out: IC50 range, anti-proliferation in colorectal cancer cells
metric name: IC50

Tell me the measured IC50 of CC(/C=C/C(=O)NO)=C\[C@@H](C)C(=O)c1ccc(N(C)C)cc1 [Trichostatin A, reference compound] , please.
14 to 27 µM

* * *

measurement target: human recombinant Glo-I enzyme (rhGlo-I) (Homo sapiens)
Construct: N-terminal Met and 6-His tag (N); purchased R&D Systems; host or cells: E. coli
procedure summary: Glyoxalase-I (Glo-I) enzyme inhibition assay
Format: biochemical
test conditions: 25 µM; read-out: Trial one (%inhibtion)
Would you mind labelling by inhibition at 25 µM? At or over 80% is TRUE, under is FALSE.

Exam item: decide whether the reported inhibition at 25 µM for CC(/C=C/C(=O)NO)=C\[C@@H](C)C(=O)c1ccc(N(C)C)cc1 [Trichostatin A, reference compound] is at least 80%.
FALSE

// query: `O=c1cc(O)cc(/C=C/c2ccc(O)c(O)c2)o1`
FALSE

// query: C[C@]12CC[C@@H]3c4ccc(O)c(O)c4CC[C@H]3[C@@H]1CC[C@@H]2O [4-hydroxy-estradiol]
TRUE

// query: `O=C1c2ccc(O)c(O)c2C(=O)c2c(O)ccc(O)c21`
FALSE

// query: O=C(/C=C/c1ccc(O)c(O)c1)O[C@H]1[C@H](O)[C@@H](O)[C@H](OCCc2ccc(O)c(O)c2)O[C@@H]1CO [Calceolarioside A]
FALSE

* * *

System: HT-29 colorectal cancer cell line
procedure summary: SRB cytotoxicity assay, HT29
Format: cell-based
test conditions: Homo sapiens, 72 h incubation, n = 12, read-out: Cytotoxicity (as of %Control) IC50 value HT29
Method: The cancer cell lines were cultured in DMEM supplemented with 10% FBS (Bio Whittaker, Verviers, Belgium), HEPES Buffer (10 mM), gentamicin (50 µg/mL), L-glutamine (100 μg/mL), streptomycin ([…]), penicillin (100 µg/mL), and 4-(2-hydroxyethyl)-1-piperazineethanesulfonic acid (HEPES) Buffer (Sigma, St. Luis, MO, USA). […] The cytotoxicity levels were assessed using the Sulforhodamine B (SRB) colorimetric assay, provided by Santa Cruz Biotechnology, Inc. in Texas, USA. […]
Simple rule here: IC50 less than 60 µM is true, otherwise false.

Quick check: does O=c1c(O)c(-c2cc(O)c(O)c(O)c2)oc2cc(O)cc(O)c12 [Myricetin, reference compound] have IC50 under 60 µM?
true

// query: O=c1cc(O)cc(/C=C/c2ccc(O)c(O)c2)o1 [Hispidin]
false

// query: Cc1ccc(C(=O)c2cc(O)c(O)c([N+](=O)[O-])c2)cc1 [Tolcapone, reference compound]
false

// query: CC(/C=C/C(=O)NO)=C\[C@@H](C)C(=O)c1ccc(N(C)C)cc1 [Trichostatin A, reference compound]
true

// query: CC(C)=CC[C@@H](O)C1=CC(=O)c2c(O)ccc(O)c2C1=O [Shikonin]
false

// query: O=C1c2ccc(O)c(O)c2C(=O)c2c(O)ccc(O)c21 [Quinalizarin]
false

// query: C[C@]12CC[C@@H]3c4ccc(O)c(O)c4CC[C@H]3[C@@H]1CC[C@@H]2O [4-hydroxy-estradiol]
false

// query: COc1cccc2c1C(=O)c1c(O)c3c(c(O)c1C2=O)C[C@@](O)(C(=O)CO)C[C@@H]3O[C@H]1C[C@H](N)[C@H](O)[C@H](C)O1 [Doxorubicin, reference compound]
true

* * *

What inhibition at 6.25 µM was measured for each of the following?
measurement target: human recombinant Glo-I enzyme (rhGlo-I) (Homo sapiens)
Construct: N-terminal Met and 6-His tag (N); purchased R&D Systems; host or cells: E. coli
procedure summary: Glyoxalase-I (Glo-I) enzyme inhibition assay
Assay type: biochemical
test conditions: 6.25 µM; read-out: Trial one (%inhibtion)
Lab book: enter the figure in %, no units written.

Tell me the measured inhibition at 6.25 µM of C[C@]12CC[C@@H]3c4ccc(O)c(O)c4CC[C@H]3[C@@H]1CC[C@@H]2O [4-hydroxy-estradiol] , please.
95.6

// query: Cc1ccc(C(=O)c2cc(O)c(O)c([N+](=O)[O-])c2)cc1 [Tolcapone, reference compound]
28

// query: O=C(/C=C/c1ccc(O)c(O)c1)O[C@H]1[C@H](O)[C@@H](O)[C@H](OCCc2ccc(O)c(O)c2)O[C@@H]1CO [Calceolarioside A]
14.4

// query: `O=C1c2ccc(O)c(O)c2C(=O)c2c(O)ccc(O)c21`
32.6

// query: `O=c1cc(O)cc(/C=C/c2ccc(O)c(O)c2)o1`
19.1

// query: CC(/C=C/C(=O)NO)=C\[C@@H](C)C(=O)c1ccc(N(C)C)cc1 [Trichostatin A, reference compound]
22.3
